IC50 values by entry
System: 997726-040-R-J2-PDC tumor spheroids, viability;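 also: spheroids exposed to compounds for seven days before readout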
assay_overview: Anticancer human tumor 997726-040-R-J2-PDC patient-derived squamous cell lung carcinoma cell line growth inhibition [PI3K]
condition: curve of first compound; second compound 0.1 µM; spheroids with HUVEC and MSC
Text: Combinatorial screen of targeted agents with the PI3K inhibitors inavolisib, alpelisib, duvelisib, and copanlisib in multi-cell type tumor spheroids A high-throughput screen of multi-cell type tumor spheroids was designed to identify active combinations of targeted small molecules and PI3K pathway inhibitors. […] Compounds. […] If the clinical Cmax for an agent had not been determined, the highest concentration tested was 10 microM. […]

(Q) Request - read-out IC50 | tested on 997726-040-R-J2-PDC tumor spheroids, viability | compound CC(Cn1ccc(-c2ccc(C#N)c(Cl)c2)n1)NC(=O)c1cc(C(C)O)[nH]n1 (stereo not drawn) + COc1c(OCCCN2CCOCC2)ccc2c3n(c(=NC(=O)c4cnc(N)nc4)nc12)CCN3;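 also: spheroids exposed to compounds for seven days before readout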
(A) < 0.0316 µM

(Q) Give IC50 (997726-040-R-J2-PDC tumor spheroids, viability) of the following compound: C=CC(=O)N1CCN(c2nc(=O)n(-c3c(C)ccnc3C(C)C)c3nc(-c4c(O)cccc4F)c(F)cc23)C(C)C1 (stereo not drawn) + Cc1nc(NC(=O)N2CCCC2C(N)=O)sc1-c1ccnc(C(C)(C)C(F)(F)F)c1
(A) > 10 µM

(Q) GET /values?readout=IC50&system=997726-040-R-J2-PDC tumor spheroids, viability&item= C[C@@H](NC(=O)c1ncnc(N)c1Cl)c1ncc(C(=O)Nc2cc(C(F)(F)F)c(Cl)cn2)s1 + CC(Nc1ncnc2nc[nH]c12)c1cc2cccc(Cl)c2c(=O)n1-c1ccccc1;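 also: spheroids exposed to compounds for seven days before readout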
(A) > 10 µM
